- MEASUREMENT_TARGET: UCHL1 (Homo sapiens)
pIC50: −log10 of the molar value.
Let's look at some compounds and their measured pIC50.

COMPOUND	pIC50
CC1CC(C(=O)Nc2ncc(-c3ccccc3)s2)CN1C#N (mixture of isomers)	5.00 to 6.00
N#CN1C[C@@H](C(=O)Nc2ncc(-c3ccccc3)s2)[C@H](c2cccnc2)C1 (relative stereo)	5.00 to 6.00
CC[C@@H]1CN(C#N)C[C@H]1C(=O)Nc1cn(-c2ccccc2)cn1	5.00 to 6.00
CC(C)(C)c1ccnc(NC(=O)[C@H]2CCN(C#N)C2)c1	5.00 to 6.00
N#CN1CC[C@H](C(=O)Nc2nc3c(s2)CN(Cc2ccccc2)CC3)C1	5.00 to 6.00
Cc1cccc2sc(NC(=O)[C@H]3CCN(C#N)C3)nc12	4.52 to 5.00
COc1ccc(-n2cnc(NC(=O)[C@H]3CCN(C#N)C3)c2)cc1	> 6.00
N#CN1CCC(C(=O)Nc2ncc(-c3cccc(Cl)c3)s2)C1 (stereo not drawn)	5.00 to 6.00
Cc1noc(C)c1-c1ccc2nc(NC(=O)[C@H]3CCN(C#N)C3)cn2c1C	> 6.00
CC(=O)NCC1CCCCN1c1cnc(NC(=O)C2CCN(C#N)C2)s1 (stereo not drawn)	> 6.00
CC1(C(=O)Nc2ncc(-c3ccccc3)s2)CCN(C#N)C1 (stereo not drawn)	5.00 to 6.00
N#CN1CC[C@H](C(=O)Nc2cn(-c3ccc4[nH]ncc4c3)cn2)C1	> 6.00
CN(c1ccccc1)c1cnc(NC(=O)C2CCN(C#N)C2)s1 (stereo not drawn)	> 6.00
Cc1nc(NC(=O)[C@H]2CCN(C#N)C2)sc1CN1CCOCC1	> 6.00
CC(NS(=O)(=O)c1ccc(NC(=O)[C@H]2CCN(C#N)C2)nc1)c1ccccc1 (stereo partly drawn)	5.00 to 6.00
CNc1cc(-c2ccnc(NC(=O)[C@H]3CCN(C#N)C3)c2)ccn1	5.00 to 6.00
N#CN1CCC(C(=O)Nc2ncc(-c3ccc(N)cc3)s2)C1 (stereo not drawn)	> 6.00
N#CN1CC[C@H](C(=O)Nc2ncc(-c3cccc(-n4ccnc4)c3)s2)C1	> 6.00
N#CN1CC[C@H](C(=O)Nc2cn(Cc3cccnc3)cn2)C1	> 6.00
N#CN1CC[C@H](C(=O)Nc2cn(C3CCCCC3)cn2)C1	> 6.00
C[C@@H]1CN(C#N)C[C@H]1C(=O)Nc1cn(-c2ccccc2)cn1	5.00 to 6.00
N#CN1CC[C@H](C(=O)Nc2ncc(N3CCNC(=O)CC3)s2)C1	> 6.00
N#CN1CC[C@H](C(=O)Nc2ncc(-c3ccc(F)c(C(N)=O)c3)s2)C1	> 6.00
CC(=O)Nc1ccc(-c2cnc(NC(=O)C3CCN(C#N)C3)s2)cc1 (stereo not drawn)	> 6.00
Cc1noc(C)c1-c1ccc2nc(NC(=O)[C@H]3CCN(C#N)C3)sc2c1C	> 6.00
N#CN1CC[C@H](C(=O)Nc2cnc(N3CCCC3)cn2)C1	5.00 to 6.00
Cn1nc(NC(=O)[C@H]2CCN(C#N)C2)cc1-c1ccccc1	> 6.00
N#CN1C[C@@H](C(F)(F)F)[C@H](C(=O)Nc2ncc(-c3ccccc3)s2)C1	> 6.00
N#CN1CC[C@H](C(=O)Nc2cc3cccnc3cn2)C1	5.00 to 6.00
Cc1oncc1-c1cccc(-c2ccnc(NC(=O)[C@H]3CCN(C#N)C3)c2)c1	> 6.00
N#CN1CC[C@H](C(=O)Nc2ncc(-c3ccc(C(F)(F)F)cc3)s2)C1	> 6.00
N#CN1CC[C@H](C(=O)Nc2cn3cc(-c4cnco4)ccc3n2)C1	> 6.00
N#CN1CC[C@H](C(=O)Nc2cn(Cc3ccncc3)cn2)C1	> 6.00
C[C@@H]1CN(C#N)C[C@H]1C(=O)Nc1ncc(-c2ccccc2)s1	> 6.00
N#CN1CC[C@H](C(=O)Nc2cn(-c3ccncc3)cn2)C1	> 6.00
COCCn1ncc2cc(-c3cnc(NC(=O)[C@H]4CCN(C#N)C4)s3)ccc21	> 6.00

###

- MEASUREMENT_TARGET: UCHL1 (Homo sapiens, UniProt P09936)

COMPOUND	IC50
N#Cc1ccc(C2CC2)cc1-n1cnc(NC(=O)[C@H]2CCN(C#N)C2)c1 [Example 306]	< 1000 nM
N#CN1CC[C@H](C(=O)Nc2nc3c(Br)cccc3s2)C1 [Example 48]	1000 to 10000 nM
C[C@H](c1ccccc1)n1cnc(NC(=O)[C@H]2CCN(C#N)C2)c1 [Example 167]	< 1000 nM
C[C@@H](c1ccccc1)n1cnc(NC(=O)[C@H]2CCN(C#N)C2)c1 [Example 166]	< 1000 nM
COc1cc(-n2cnc(NC(=O)[C@H]3CCN(C#N)C3)c2)ccc1C#N [Example 307]	< 1000 nM
N#CN1CC[C@H](C(=O)Nc2cn3ccc(Br)cc3n2)C1 [Example 50]	1000 to 10000 nM
COc1cc(-c2ccc3nc(NC(=O)[C@H]4CCN(C#N)C4)cn3c2)c(OC)nn1 [Example 131]	< 1000 nM
N#CN1CC[C@H](C(=O)Nc2ncc(-c3ccc(Cl)c(C(N)=O)c3)s2)C1 [Example 237]	< 1000 nM
CNC(=O)c1cccc(-c2cnc(NC(=O)[C@H]3CCN(C#N)C3)s2)c1 [Example 233]	< 1000 nM
N#CN1CCC(C(=O)Nc2ncc(-c3ccccc3F)s2)C1 (stereo not drawn) [Example 3]	1000 to 10000 nM
Cc1noc(C)c1-c1ccc2cnc(NC(=O)[C@H]3CCN(C#N)C3)cc2c1 [Example 261]	< 1000 nM
N#CN1CCC(C(=O)Nc2ncc(CN3CCOCC3)s2)C1 (stereo not drawn) [Example 140]	< 1000 nM
N#CN1CC[C@H](C(=O)Nc2cc(-c3ccccc3)ccn2)C1 [Example 268]	1000 to 10000 nM
CNC(=O)c1ccc(-c2cnc(NC(=O)[C@H]3CCN(C#N)C3)s2)cc1 [Example 64]	< 1000 nM
COc1ccc(-c2ccc3nc(NC(=O)[C@H]4CCN(C#N)C4)sc3c2)cc1 [Example 121]	1000 to 10000 nM
CN1CCN(c2cnc(NC(=O)C3CCN(C#N)C3)s2)CC1 (stereo not drawn) [Example 92]	< 1000 nM
Cc1ccc2nc(NC(=O)C3CCN(C#N)C3)sc2c1 (stereo not drawn) [Example 19]	1000 to 10000 nM
CNC(=O)c1cc(-c2cnc(NC(=O)[C@H]3CCN(C#N)C3)s2)ccc1F [Example 231]	< 1000 nM

###

- MEASUREMENT_TARGET: UniProt:P09936
pIC50: −log10 of the molar value.

COMPOUND	MEASUREMENT_TARGET	pIC50
N#CN1CC[C@@H](C(=O)Nc2ncc(N3CCOCC3)s2)C1	UniProt:P09936	5.00 to 6.00
COCCOc1ccc(C#N)c(-n2cnc(NC(=O)[C@H]3CCN(C#N)C3)c2)c1	UniProt:P09936	> 6.00
N#CN1CC[C@H](C(=O)Nc2ncc(-c3ccc4[nH]ncc4c3)s2)C1	UniProt:P09936	> 6.00
N#CN1CC[C@H](C(=O)Nc2ccn(-c3ccccc3)n2)C1	UniProt:P09936	4.52 to 5.00
C#Cc1ccc2cnc(NC(=O)[C@H]3CCN(C#N)C3)cc2c1	UniProt:P09936	5.00 to 6.00
N#CN1CCC(C(=O)Nc2nnc(-c3ccccc3)s2)C1 (stereo not drawn)	UniProt:P09936	5.00 to 6.00
N#CN1CC[C@H](C(=O)Nc2cn(C3CCOCC3)cn2)C1	UniProt:P09936	> 6.00
N#CN1CC[C@@H](C(=O)Nc2ncc(N3CCCCC3)s2)C1	UniProt:P09936	5.00 to 6.00
N#CN1CC[C@H](C(=O)Nc2cc3ccccn3n2)C1	UniProt:P09936	5.00 to 6.00

###

Protein target, amino acids: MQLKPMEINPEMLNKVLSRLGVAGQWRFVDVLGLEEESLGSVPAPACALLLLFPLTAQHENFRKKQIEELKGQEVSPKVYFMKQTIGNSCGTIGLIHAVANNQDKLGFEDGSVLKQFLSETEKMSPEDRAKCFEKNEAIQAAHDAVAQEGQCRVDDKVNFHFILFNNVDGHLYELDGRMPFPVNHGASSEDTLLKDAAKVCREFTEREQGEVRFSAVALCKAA
pIC50: −log10 of the molar value.
Let's look at some compounds and their measured pIC50.

COMPOUND	pIC50
C[C@@H]1CN(C#N)C[C@H]1C(=O)Nc1ncc(N2CCCCC2)s1 (racemic)	> 6.00
CC1(C(=O)Nc2cn(-c3ccccc3)cn2)CCN(C#N)C1 (centres unmarked)	4.52 to 5.00
N#Cc1ccc(-n2cnc(NC(=O)[C@H]3CCN(C#N)C3)c2)cc1	> 6.00
N#CN1CCC(C(=O)Nc2ncc(-c3ccccc3Cl)s2)C1 (centres unmarked)	5.00 to 6.00
N#CN1CC[C@@H](C(=O)Nc2ccc(-c3ccccc3)cn2)C1	4.52 to 5.00
N#CN1CC[C@H](C(=O)Nc2cn(-c3cccc(F)c3)cn2)C1	> 6.00
N#CN1CCC(C(=O)Nc2ccc3c(cnn3Cc3ccccc3)c2)C1 (centres unmarked)	4.52 to 5.00
C#Cc1ccc(-c2cnc(NC(=O)[C@H]3CCN(C#N)C3)s2)cc1	> 6.00
